The measured values listed here are drawn from ChEMBL document CHEMBL1667762.

tested on: Rattus norvegicus; experiment: Antidepressant activity in Albino rat assessed as immobility time at 100 mg/kg, ip by forced swimming test (reference value: 112.4 +/- 2.88 sec); assay type: functional; details: route intraperitoneal
Threshold check on Time: at or above 80 s gives 1 (yes), strictly below gives 0 (no).

Cc1cccc2cc(CNc3ccc(Cl)cc3)c(Cl)nc12 | 0 (no)
Cc1ccc(NCc2cc3cccc(C)c3nc2Cl)cc1 | 1 (yes)
CCCCNCc1cc2cccc(C)c2nc1Cl | 1 (yes)

Determine whether this compound has Time no lower than 80 s: Cc1cccc2cc(CNc3ccc(Cl)c(Cl)c3)c(Cl)nc12
0 (no)

Could you verify whether the entry Cc1cccc2cc(CNc3ccc([N+](=O)[O-])cc3)c(Cl)nc12 shows Time of no less than 80 s?
1 (yes)

Item Cc1cccc2cc(CNc3ccc(F)c(Cl)c3)c(Cl)nc12 with Time of 80 s or above?
0 (no)
